- study.target: Human BCL-XL protein (N-terminal HiBiT tagged BCL-XL in HT1080 cells) (Homo sapiens, UniProt Q07817)
- Construct: expressed in transfected cells; host or cells: HT-1080 (ATCC CCL-121), stably transduced with lentivirus pLV-UBC-N-HiBiT-BCL-XL-PGK-puro and selected with puromycin
- Sequence (Q07817 whole entry): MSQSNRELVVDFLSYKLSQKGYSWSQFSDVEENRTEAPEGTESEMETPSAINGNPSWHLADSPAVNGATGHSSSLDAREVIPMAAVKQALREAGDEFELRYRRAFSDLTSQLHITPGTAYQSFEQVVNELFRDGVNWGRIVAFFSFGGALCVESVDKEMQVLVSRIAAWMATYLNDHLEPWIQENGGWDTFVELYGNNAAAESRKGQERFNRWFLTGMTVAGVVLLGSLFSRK
- procedure.text: HiBiT based degradation assay
- Format: cell-based
- settings: BCL-XL degradation normalized with DMSO control; HT1080 cells expressing HiBiT-BCL-XL; 24 h

molecule	Ymin (24 h)
Cc1c(CCCOC2CCN(CC(=O)Nc3ccc4c(C5CCC(=O)NC5=O)nn(C)c4c3)CC2)cccc1-c1ccc(N2CCc3cccc(C(=O)Nc4nc5ccccc5s4)c3C2)nc1C(=O)O (stereo not shown) [Compound 290]	A (Ymin < 50%)
Cc1c(O[C@H]2CC[C@H](CCC(=O)Nc3ccc4c(C5CCC(=O)NC5=O)nn(C)c4c3)CC2)cccc1-c1ccc(N2CCc3cccc(C(=O)Nc4nc5ccccc5s4)c3C2)nc1C(=O)O (stereo partly shown) [Compound 125a]	C (Ymin ≥ 70%)
Cc1cc(OC[C@@H](C)CC2CCN(CC(=O)Nc3ccc4c(C5CCC(=O)NC5=O)nn(C)c4c3)CC2)ccc1-c1ccc(N2CCc3cccc(C(=O)Nc4nc5ccccc5s4)c3C2)nc1C(=O)O (stereo in doubt) [Compound 271b]	C (Ymin ≥ 70%)
Cc1c(OCC2CC3(CCN(CC(=O)Nc4cccc5c(C6CCC(=O)NC6=O)nn(C)c45)CC3)C2)cccc1-c1ccc(N2CCc3cccc(C(=O)Nc4nc5ccccc5s4)c3C2)nc1C(=O)O (stereo not shown) [Compound 226]	B (50% ≤ Ymin < 70%)
Cc1c(O[C@H]2CC[C@H](C[C@@H](C)CCN3CCN(c4ccc5c(C6CCC(=O)NC6=O)nn(C)c5c4)CC3)CC2)cccc1-c1ccc(N2CCc3cccc(C(=O)Nc4nc5ccccc5s4)c3C2)nc1C(=O)O (single isomer, unassigned) [Compound 307b]	A (Ymin < 50%)
Cc1c(OCCC[C@@H]2CCN(CC(=O)Nc3ccc4c(C5CCC(=O)NC5=O)nn(C)c4c3)[C@@H](C)C2)cccc1-c1ccc(N2CCc3cccc(C(=O)Nc4nc5ccccc5s4)c3C2)nc1C(=O)O (stereo partly shown) [Compound 343c]	A (Ymin < 50%)
Cc1c(OCC[C@H]2CCN(CC(=O)Nc3cccc4c(C5CCC(=O)NC5=O)nn(C)c34)C2)cccc1-c1ccc(N2CCc3cccc(C(=O)Nc4nc5ccccc5s4)c3C2)nc1C(=O)O (stereo partly shown) [Compound 231b]	B (50% ≤ Ymin < 70%)
Cc1cc(CCCCC2CCN(CC(=O)Nc3ccc4c(C5CCC(=O)NC5=O)nn(C)c4c3)CC2)ccc1-c1ccc(N2CCc3cccc(C(=O)Nc4nc5ccccc5s4)c3C2)nc1C(=O)O (stereo not shown) [Compound 294]	A (Ymin < 50%)
Cc1c(OCCCC2CCN([C@H](C)C(=O)Nc3cccc4c(C5CCC(=O)NC5=O)nn(C)c34)CC2)cccc1-c1ccc(N2CCc3cccc(C(=O)Nc4nc5ccccc5s4)c3C2)nc1C(=O)O (stereo partly shown) [Compound 216b]	B (50% ≤ Ymin < 70%)
Cc1c(OCCCC2CCN(CCc3ccc4c(C5CCC(=O)NC5=O)nn(C)c4c3)CC2)cccc1-c1ccc(N2CCc3cccc(C(=O)Nc4nc5ccccc5s4)c3C2)nc1C(=O)O (stereo not shown) [Compound 303]	A (Ymin < 50%)
Cc1c(O[C@H]2CC[C@H](CCCN3CCN(c4ccc5c(C6CCC(=O)NC6=O)nn(C)c5c4)C[C@@H]3C)CC2)cccc1-c1ccc(N2CCc3cccc(C(=O)Nc4nc5ccccc5s4)c3C2)nc1C(=O)O (stereo partly shown) [Compound 273b]	A (Ymin < 50%)
Cc1c(OCCCN2CCN(CC(=O)Nc3ccc4c(C5CCC(=O)NC5=O)nn(C)c4c3)CC2)cccc1-c1ccc(N2CCc3cccc(C(=O)Nc4nc5ccccc5s4)c3C2)nc1C(=O)O (stereo not shown) [Compound 104]	A (Ymin < 50%)
Cc1c(OCCCN2CCN(CCOc3ccc4c(C5CCC(=O)NC5=O)nn(C)c4c3)CC2)cccc1-c1ccc(N2CCc3cccc(C(=O)Nc4nc5ccccc5s4)c3C2)nc1C(=O)O (stereo not shown) [Compound 136]	B (50% ≤ Ymin < 70%)
Cc1c(O[C@H]2CC[C@H](CC(F)(F)CN3CCN(c4cccc5c(C6CCC(=O)NC6=O)nn(C)c45)CC3)CC2)cccc1-c1ccc(N2CCc3cccc(C(=O)Nc4nc5ccccc5s4)c3C2)nc1C(=O)O (stereo partly shown) [Compound 168a]	B (50% ≤ Ymin < 70%)
Cc1c(OCCCN2CCN(CC3CCC4(CC3)CN(c3cccc5c(C6CCC(=O)NC6=O)nn(C)c35)C4)CC2)cccc1-c1ccc(N2CCc3cccc(C(=O)Nc4nc5ccccc5s4)c3C2)nc1C(=O)O (stereo not shown) [Compound 260]	A (Ymin < 50%)
Cc1c(OCCC(F)(F)C2CCN(CC(=O)Nc3cccc4c(C5CCC(=O)NC5=O)nn(C)c34)CC2)cccc1-c1ccc(N2CCc3cccc(C(=O)Nc4nc5ccccc5s4)c3C2)nc1C(=O)O (stereo not shown) [Compound 196]	B (50% ≤ Ymin < 70%)
Cc1cc(OCCCC2CCN(CC(=O)Nc3cccc4c(C5CCC(=O)NC5=O)nn(C)c34)CC2)ccc1-c1ccc(N2CCc3cccc(C(=O)Nc4nc5ccccc5s4)c3C2)nc1C(=O)O (stereo not shown) [Compound 236]	B (50% ≤ Ymin < 70%)
Cc1c(OCC[C@H]2CC23CCN(CC(=O)Nc2ccc4c(C5CCC(=O)NC5=O)nn(C)c4c2)CC3)cccc1-c1ccc(N2CCc3cccc(C(=O)Nc4nc5ccccc5s4)c3C2)nc1C(=O)O (stereo in doubt) [Compound 289b]	A (Ymin < 50%)
Cc1c(OCC(F)(F)CN2C[C@@H](C)N(CC(=O)N3CCN(c4cccc5c(C6CCC(=O)NC6=O)nn(C)c45)CC3)[C@@H](C)C2)cccc1-c1ccc(N2CCc3cccc(C(=O)Nc4nc5ccccc5s4)c3C2)nc1C(=O)O (stereo partly shown) [Compound 179a]	A (Ymin < 50%)
